- assay-protocol: protein stability index of a GFP-peptide fusion (GPS, HEK-293T) (PSI 1-6); higher = more stable;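 also: 24-mer peptide tiles fused after GFP, lentivirally expressed, FACS-sorted into six equal bins by GFP/DsRed ratio, decoded by Illumina sequencing, PSI is the read-weighted mean bin number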
- settings: treatment: MLN4924 1 uM, 8 h; c terminus: a fixed tail appended
metric: protein stability index

>>> df
                      monomer_sequence                   metric  recorded_number
 0    QSTDGARGKRGYSRGLHAWEISWP [SPSB2]  protein stability index             2.75
 1     VISQLEQGTELWVAERGTTQGCHP [ZNF8]  protein stability index             3.99
 2    GSSIPWNHLPDPEIFRQRFRQFGY [ZNF24]  protein stability index             2.66
 3    TMEYSMVGRTVLDMLIREVVEKRL [RSPH3]  protein stability index             2.64
 4    RNVLELNDVRQSANYTCVAMSTLG [PTPRD]  protein stability index             2.74
 5  GPSEPGGTHPEDHQGHSDQHHHHH [RHOBTB2]  protein stability index             5.32
 6    YPDQSPSEDWTMEERFRPLTFHGL [CLCN6]  protein stability index             3.37
 7    MSLKCLAARAVRANDINYQDQIPR [FEM1B]  protein stability index             3.52
 8     NYPYDKSFEHRVRGVRRTASTPTP [CPN1]  protein stability index             4.14
 9  RCCGAASYQDWQQNLYFNCSSPGV [TSPAN10]  protein stability index             2.33
10  TNCQKVLNMWCCCFFKRRKRKTIQ [CSNK1G3]  protein stability index             3.77
11  ASCCIDPREDGASVNDQCGFGVLR [TSPAN10]  protein stability index             3.83
12    EDLELKKKIFAQLDSIIDDRVILS [CRYL1]  protein stability index             3.01
